List of %-inhibition of TRKB values.
- subject.of.test: panel of more than 300 wild-type and mutant kinases (313 kinase panel) (Homo sapiens, UniProt Q16620)
- assay.name: Kinase profiling in a biochemical assay panel (mobility shift assays and ELISA), %-inhibition at 1 μM; selectivity entropy
- cond: kinase TRKB; 1 μM
Report the figure in % without appending any unit label.

C[C@@H](Oc1cc(-c2cnn(C3CCNCC3)c2)cnc1N)c1c(Cl)ccc(F)c1Cl    102
CS(=O)(=O)CCNCc1ccc(-c2ccc3ncnc(Nc4ccc(OCc5cccc(F)c5)c(Cl)c4)c3c2)o1    -10

Turning to the following compound.
Lookup: State the recorded %-inhibition of TRKB for this entry: "CCCS(=O)(=O)Nc1ccc(F)c(C(=O)c2c[nH]c3ncc(-c4ccc(Cl)cc4)cc23)c1F"
Found: 11

These measurements were taken from paper PMC3961306.
